- ASSAY_SUMMARY: qHTS for Inhibitors of the Functional Ribonucleoprotein Complex (vRNP) of Lassa (LASV) Arenavirus: LASV Primary Screen - GLuc reporter signal (AID 1347082); also: nearly all actives have a fitted effect of over 60% in size
- COND: LASV minigenome vRNP, Gaussia luciferase reporter; series mostly up to 57.5 µM
Records with an inconclusive call do not appear. Activity calls are given as the source filed them. Calls follow the shape of the full dose curve; tested in HEK293 reporter line.
Outcome codes: active, inactive

>>> classification("C[C@@H]1CC[C@H]2[C@@H](C)C(=O)O[C@@H]3O[C@@]4(C)CC[C@H]1[C@]32OO4")
"inactive"
>>> classification("NCCCC(N)(C(=O)O)C(F)F (stereo unspecified)")
"inactive"
>>> classification("c1ccc(CCCN2CCN(CCOC(c3ccccc3)c3ccccc3)CC2)cc1")
"inactive"
>>> classification("CN(C)c1ccc(Nc2nc(N)n(C(=O)c3c(F)cccc3F)n2)cc1")
"inactive"
>>> classification("C[C@@H](N)C(=O)O")
"inactive"
>>> classification("NC(=O)c1c(OCc2c(F)cc(Br)cc2F)nsc1NC(=O)NCCCCN1CCCC1")
"inactive"
>>> classification("Clc1ccc2ncc(-c3cccc(NC4CNC4)n3)n2c1")
"inactive"
>>> classification("CCN1CCN(C(=O)Cc2ccc(Nc3ncc(F)c(Nc4ccc(C(=O)Nc5ccccc5Cl)cc4)n3)cc2)CC1")
"inactive"
>>> classification("C[C@@H]1O[C@@H](O[C@@H]2C=C3CC[C@@H]4[C@@H](CC[C@]5(C)[C@H](c6ccc(=O)oc6)CC[C@@]45O)[C@@]3(C)CC2)[C@H](O)[C@H](O)[C@H]1O")
"active"
>>> classification("CN(C(=O)C(Cl)Cl)c1ccc(OC(=O)c2ccco2)cc1")
"inactive"
>>> classification("[Cl][In]([Cl])[Cl]")
"inactive"

* * *

- ASSAY_SYSTEM: Papain (Carica papaya) (UniProt P00784)
- Sequence (P00784 whole entry, looked up): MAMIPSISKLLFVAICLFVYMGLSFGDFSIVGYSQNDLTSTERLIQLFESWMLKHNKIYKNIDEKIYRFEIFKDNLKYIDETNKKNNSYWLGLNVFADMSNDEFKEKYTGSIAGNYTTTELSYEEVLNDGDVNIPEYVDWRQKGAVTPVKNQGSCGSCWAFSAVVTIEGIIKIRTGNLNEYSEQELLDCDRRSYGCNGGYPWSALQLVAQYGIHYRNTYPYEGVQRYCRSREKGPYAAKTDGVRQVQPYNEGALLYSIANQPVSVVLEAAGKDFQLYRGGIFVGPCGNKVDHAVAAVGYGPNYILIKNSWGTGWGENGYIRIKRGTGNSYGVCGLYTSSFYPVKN
- ASSAY_SUMMARY: Primary qHTS assay for inhibitors of the protease papain (AID 1645873);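 also: papain turnover of Z-FR-AMC read as the AMC fluorescence gain over 10 min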
- COND: papain Z-FR-AMC cleavage, AMC fluorescence; series mostly up to 49.8 µM
Results filed as inconclusive are left out. The source made the active and inactive calls. The call rests on the fitted dose curve; in most records, active means well fitted inhibition curve with a large enough effect; inconclusive means small, poorly fitted or top-dose-only effect; inactive means no such curve, though single readings can be large or run the other way.
Outcome codes: T (active), F (inactive)

>>> classification("NC(CP(=O)(O)O)C(=O)O (centres undefined)")
"F"
>>> classification("CCCCc1ccc(C(=O)O)nc1")
"F"
>>> classification("C[C@@H](N)Cc1cnc[nH]1")
"F"
>>> classification("O=C(Cc1ccc(Cl)c(Cl)c1)N1CCCCC1CN1CCCC1 (centres undefined)")
"F"
>>> classification("NC(CCP(=O)(O)O)C(=O)O (centres undefined)")
"F"
>>> classification("CCCN(CCC)[C@@H]1CCc2ccc(O)cc2C1")
"F"
>>> classification("CC(=O)NCCc1c[nH]c2ccccc12")
"F"
>>> classification("NC(=NCCC[C@H](N)C(=O)O)N[N+](=O)[O-]")
"F"
>>> classification("Cc1nccc2c1[nH]c1ccccc12")
"T"
>>> classification("CN1C2CCC1CC(OC(=O)c1cc(Cl)cc(Cl)c1)C2 (centres undefined)")
"F"
>>> classification("C[N+](C)(C)CC(=O)O")
"F"
>>> classification("O=C(O)[C@@H]1CCN1")
"F"
>>> classification("CC[C@@H](C(N)=O)N1CCCC1=O")
"F"
>>> classification("CNCCc1ccc(O)c(O)c1")
"F"

* * *

- ASSAY_SUMMARY: Cellular Toxicity (caspase-3) Jurkat (AID 655);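 also: cells exposed to compound for 16 h at 37 °C before reading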
- COND: Jurkat caspase-3 activation, luminescence, DMSO = 0%, tamoxifen = 100%; series mostly up to 92.2 µM
Records with an inconclusive call do not appear. Active and inactive are the calls of the source. Calls come from the whole dose curve; as a rule, active = well fitted activation curve with a large enough effect; inconclusive = small, poorly fitted or top-dose-only effect; inactive = flat fitted curve, though single readings scatter.
OUTCOME_MEASURE: outcome

>>> recorded_result("O=C(O)C(Cl)Cl")
"inactive"
>>> recorded_result("CN(C)NC(=O)CCC(=O)O")
"inactive"
>>> recorded_result("CCOP(=O)(NC(C)C)Oc1ccc(SC)c(C)c1 (stereo not given)")
"inactive"
>>> recorded_result("CCCCOC(=O)c1ccccc1C(=O)OCc1ccccc1")
"inactive"
>>> recorded_result("CCCCCCCCc1ccc(O)cc1")
"inactive"
>>> recorded_result("O=C(O)COc1ccccc1")
"inactive"
>>> recorded_result("COC(C)(C)CCCC(C)C/C=C/C(C)=C/C(=O)OC(C)C (stereo not given)")
"inactive"
>>> recorded_result("CN(C)[C@@H]1C(=O)C(C(N)=O)=C(O)[C@@]2(O)C(=O)C3=C(O)c4c(O)cccc4[C@@](C)(O)[C@H]3[C@H](O)[C@@H]12")
"inactive"
>>> recorded_result("Cc1cc(O)ccc1Cl")
"inactive"
>>> recorded_result("CCCCC(CC)COC(=O)c1ccccc1C(=O)OCC(CC)CCCC (stereo not given)")
"inactive"
>>> recorded_result("COc1ccc(C(c2ccc(OC)cc2)C(Cl)(Cl)Cl)cc1")
"inactive"
>>> recorded_result("Nc1ccc([N+](=O)[O-])cc1")
"inactive"
>>> recorded_result("CCOCCOC(C)=O")
"inactive"
>>> recorded_result("O=[N+]([O-])c1cc([N+](=O)[O-])c2ccccc2c1")
"inactive"
>>> recorded_result("C=CC(=O)NCNC(=O)C=C")
"inactive"

* * *

- ASSAY_SUMMARY: qHTS for Inhibitors of the Functional Ribonucleoprotein Complex (vRNP) of Lassa (LASV) Arenavirus: LASV Primary Screen - GLuc reporter signal (AID 1347082); also: nearly all actives have a fitted effect of over 60% in size; also: potency is read from the fitted curve at half-maximal effect
- COND: LASV minigenome vRNP, Gaussia luciferase reporter; series mostly up to 57.5 µM
Results filed as inconclusive are left out. Activity calls are given as the source filed them. Calls come from the whole dose curve; tested in HEK293 reporter line.
OUTCOME_MEASURE: Potency

>>> recorded_result("CC[C@@]1(O)C(=O)OCc2c1cc1n(c2=O)Cc2cc3ccccc3nc2-1")
"inactive"
>>> recorded_result("COC(=O)c1c(Cl)c(Cl)c(C(=O)OC)c(Cl)c1Cl")
"inactive"
>>> recorded_result("O=C(O)COc1nc(Cl)c(Cl)cc1Cl")
"inactive"
>>> recorded_result("CC(C)C[C@H](NC(=O)CNC(=O)c1cc(Cl)ccc1Cl)B(O)O")
"7.69 µM (active)"
>>> recorded_result("Oc1ccc2c3c1O[C@H]1c4[nH]c5c(c4C[C@@]4(O)[C@@H](C2)N(CC2CC2)CC[C@]314)C[C@@]1(O)[C@H]2Cc3ccc(O)c4c3[C@@]1(CCN2CC1CC1)[C@H]5O4")
"inactive"
>>> recorded_result("COc1ccc(CC2NCCc3cc(OC)c(OC)cc32)cc1OC (stereo unspecified)")
"inactive"
>>> recorded_result("Fc1cc(-c2cccc3ncc(-c4cnn(C5CCNCC5)c4)nc23)cc(F)c1CN1CCOCC1")
"24.3 µM (active)"
>>> recorded_result("COc1c(C)cnc(Cn2cnc3c(Cl)nc(N)nc32)c1C")
"1.37 µM (active)"
>>> recorded_result("CCCCC(CC)COC(=O)c1ccccc1C(=O)O (stereo unspecified)")
"inactive"
>>> recorded_result("COC1=C[C@@H]2[C@@H]3Cc4ccc(OC)c(O)c4[C@]2(CCN3C)CC1=O")
"19.3 µM (active)"
>>> recorded_result("O=C(NOC[C@H](O)CO)c1ccc(F)c(F)c1Nc1ccc(I)cc1F")
"inactive"
>>> recorded_result("NC(CP(=O)(O)O)C(=O)O (stereo unspecified)")
"inactive"
>>> recorded_result("c1ccc2sc(C3(N4CCCCC4)CCCCC3)cc2c1")
"inactive"
>>> recorded_result("CCCC[N+]1(C)[C@H]2CC(OC(=O)[C@H](CO)c3ccccc3)C[C@H]1[C@H]1O[C@H]12 (stereo partly specified)")
"inactive"
>>> recorded_result("OCc1c[nH]c2ccccc12")
"inactive"
>>> recorded_result("Clc1ccccc1C(c1ccccc1)(c1ccccc1)n1cccn1")
"inactive"
>>> recorded_result("C1=CC2C3C=CC(C3)C2C1 (stereo unspecified)")
"inactive"
>>> recorded_result("C[N+](C)(C)CC(=O)O")
"inactive"
>>> recorded_result("CC(=O)Oc1cccc(C)c1")
"inactive"
>>> recorded_result("NC(=O)c1ccc(I)c([N+](=O)[O-])c1")
"inactive"
>>> recorded_result("c1cc(-c2cnn3cc(-c4ccc(OCCN5CCCCC5)cc4)cnc23)ccn1")
"34.3 µM (active)"
>>> recorded_result("CN(C)CCN(C)C(=O)c1ccc(NC(=O)Nc2ccc(-c3nc(N4CCOCC4)c4ccn(CC(F)(F)F)c4n3)cc2)cc1")
"0.0485 µM (active)"
>>> recorded_result("COc1cc2nccc(Oc3ccc(NC(=O)Nc4cc(C)on4)c(Cl)c3)c2cc1OC")
"34.3 µM (active)"
>>> recorded_result("C[C@@]12OC(=O)[C@]1([C@@H](O)[C@@H]1C=CCCC1)NC(=O)[C@H]2CCCl")
"34.3 µM (active)"
>>> recorded_result("CN1C(=O)CC[C@H]1c1cccnc1")
"inactive"
>>> recorded_result("O=C(O)CCC1CCC(c2cc(F)ccc2F)(S(=O)(=O)c2ccc(Cl)cc2)CC1 (stereo unspecified)")
"inactive"
>>> recorded_result("COc1ccc2c(c1)CC[C@@H](CN(C)CC(=O)O)[C@H]2c1ccccc1")
"inactive"
>>> recorded_result("NC(=O)Nc1cc(-c2cccc(F)c2)sc1C(=O)N[C@H]1CCCNC1")
"1.22 µM (active)"
>>> recorded_result("CNCCc1ccc(O)c(O)c1")
"inactive"
>>> recorded_result("CCCCC(CC)COC(=O)c1ccc(N(C)C)cc1 (stereo unspecified)")
"inactive"
>>> recorded_result("CCCCCCCCCCC(CO)CCCCCCCC (stereo unspecified)")
"inactive"
>>> recorded_result("Cn1cnc(CCN)c1")
"inactive"
>>> recorded_result("O=C(Nc1ccc(F)c(C(F)(F)F)c1)Nc1nnc(-c2ccncc2)s1")
"inactive"
>>> recorded_result("Cc1cc([C@@H](C)Nc2ccccc2C(=O)O)c2nc(N3CCOCC3)cc(=O)n2c1")
"39.5 µM (active)"
>>> recorded_result("CC(=O)c1c(C)c2cnc(Nc3ccc(N4CCNCC4)cn3)nc2n(C2CCCC2)c1=O")
"inactive"
>>> recorded_result("C#CC(C)(CC)OC(=O)c1ccccc1C(=O)O (stereo unspecified)")
"inactive"
>>> recorded_result("CCCn1c(=O)c2[nH]c(C34CC5CC3C[C@@H](C5)C4)nc2n(CCC)c1=O")
"inactive"
>>> recorded_result("CCCOC(=O)c1ccc(O)cc1")
"inactive"
>>> recorded_result("O=C(Nc1ccc(OC(F)(F)F)cc1)c1sccc1NCc1ccnc2ccccc12")
"inactive"
>>> recorded_result("CC(C)(C)c1cc(C(=O)O)c(NC(=O)Nc2ccc3[nH]ncc3c2)s1")
"inactive"
>>> recorded_result("NC1CCc2cc(O)c(O)cc2C1 (stereo unspecified)")
"inactive"
>>> recorded_result("CC(=O)Nc1ccc(O)cc1")
"inactive"
>>> recorded_result("CC(=O)N(C)c1cccc(-c2ccnc3c(C(=O)c4cccs4)cnn23)c1")
"inactive"
>>> recorded_result("O=C1CCC[C@@H]2[C@H]3CCCN4CCC[C@@H](CN12)[C@@H]34")
"inactive"
>>> recorded_result("COc1cc([C@@H]2c3cc4c(cc3[C@@H](O)C3COC(=O)C32)OCO4)cc(OC)c1O (stereo partly specified)")
"inactive"
>>> recorded_result("COc1cc2c(cc1OC)[C@@H]1C(=O)c3ccc4c(c3O[C@@H]1CO2)C=CC(C)(C)O4")
"0.153 µM (active)"

// provenance: PubChem BioAssay (NCATS)
